tested on: biotinyl-Val-oxazolone; experiment: self-aminoacylation, catalytic enhancement (BVO) (fold over background); higher = more active; k-Seq, kA / k0A0; sequences stand for … in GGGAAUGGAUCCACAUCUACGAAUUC…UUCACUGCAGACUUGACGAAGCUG
Fewer inactive variants are shown than the library holds.
Collected self-aminoacylation values appear next to each entry.

| primarySequence | self-aminoacylation |
| --- | --- |
| CCACCCUUCAAGCAAUCGCUC [Fam1B.1 aminoacylation ribozyme variant] | 2.28 |
| CAACACUUGAAGCAAUCGGUC [Fam1B.1 aminoacylation ribozyme variant] | 0.828 |
| AAGUAUGCGAAUAGUCGCAAG [Fam3.1 aminoacylation ribozyme variant] | 1 |

// next item, self-aminoacylation requested
Prompt line: Give the measured self-aminoacylation of CCAUACUUCAAGCAAUCGGAC [Fam1B.1 aminoacylation ribozyme variant] .
Response line: 1.06

* * *

test system: biotinyl-Ile-oxazolone; experiment: self-aminoacylation, catalytic enhancement (BIO) (fold over background); higher = more active; k-Seq, kA / k0A0; sequences stand for … in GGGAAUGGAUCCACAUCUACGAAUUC…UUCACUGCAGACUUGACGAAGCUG
Variants at the floor of the assay were thinned out.
Each entry falls into one class according to its self-aminoacylation; the ranges are bin 1 (below 1), bin 2 (1 to below 2), bin 3 (2 or more)

Here are 3 sequences together with their reported answers.
| primarySequence | label |
| --- | --- |
| AAGUUUGAUAUUAGUCGCAAG [Fam3.1 aminoacylation ribozyme variant] | bin 2 |
| AUUCACUUAGGUCAUCGGGUA [Fam2.2 aminoacylation ribozyme variant] | bin 3 |
| AUUCACCUAGGUUCUCGGGUG [Fam2.2 aminoacylation ribozyme variant] | bin 3 |

Prompt line: Given AUUGCUCUGGUCAUCGAGUGA [Fam2.1 aminoacylation ribozyme variant] , name the class its self-aminoacylation places it in.
Response line: bin 3

Prompt line: Assign a bin to AUUCACCUAGGUCGUCGGAUG [Fam2.2 aminoacylation ribozyme variant]
Response line: bin 1

Prompt line: Using the reported self-aminoacylation, which band applies to AUUACCGUAGUCAUCGAGUGA [Fam2.1 aminoacylation ribozyme variant] ?
Response line: bin 3

Prompt line: Band assignment needed for AUGAACCUAGGUCAUCGGGUG [Fam2.2 aminoacylation ribozyme variant] please.
Response line: bin 3

* * *

test system: biotinyl-Trp-oxazolone; assay: self-aminoacylation, catalytic enhancement (BWO) (fold over background); higher = more active; k-Seq, kA / k0A0; sequences stand for … in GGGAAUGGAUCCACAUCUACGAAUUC…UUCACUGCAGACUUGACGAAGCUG
Variants at the floor of the assay were thinned out.
parameter: self-aminoacylation
The answer should be a number; do not append a unit.

Field: example entries. Status: answers known.
| primarySequence | measuredTarget | self-aminoacylation |
| --- | --- | --- |
| CCACUCUUCGAGCAAUCGGUC [Fam1B.1 aminoacylation ribozyme variant] | biotinyl-Trp-oxazolone | 1.32 |
| CCACACUACAAGCAAUCGGUU [Fam1B.1 aminoacylation ribozyme variant] | biotinyl-Trp-oxazolone | 1.39 |
| AUUACCCUGGCAAUCGAGUGA [Fam2.1 aminoacylation ribozyme variant] | biotinyl-Trp-oxazolone | 5.92 |
| CCACACCUCAAUCAAUCGGUC [Fam1B.1 aminoacylation ribozyme variant] | biotinyl-Trp-oxazolone | 2.88 |
| CUACUUCAAGCAAUCGGUUUG [Fam1A.1 aminoacylation ribozyme variant] | biotinyl-Trp-oxazolone | 8.79 |
| CCACAAUUCAAGCAAUCGUUC [Fam1B.1 aminoacylation ribozyme variant] | biotinyl-Trp-oxazolone | 0.719 |
| UCCCACUUCAAGCAAUCGGUC [Fam1B.1 aminoacylation ribozyme variant] | biotinyl-Trp-oxazolone | 22.3 |

Now for the sequence whose self-aminoacylation we want.
Prompt line: Recall the recorded self-aminoacylation for AUUACCCUGUACAUCGAGUGA [Fam2.1 aminoacylation ribozyme variant] with biotinyl-Trp-oxazolone and state it.
Response line: 13.2

* * *

tested on: biotinyl-Ile-oxazolone; assay: self-aminoacylation, catalytic enhancement (BIO) (fold over background); higher = more active; k-Seq, kA / k0A0; sequences stand for … in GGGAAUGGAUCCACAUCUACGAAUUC…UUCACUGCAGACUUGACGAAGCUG
This sample holds only a part of the variants without activity.
parameter: self-aminoacylation
Give the figure only, with no unit attached.

| primarySequence | self-aminoacylation |
| --- | --- |
| CUACUUGAAACAACCGGUCUG [Fam1A.1 aminoacylation ribozyme variant] | 1.07 |
| AAGUUGGCUAAGAGUCGCAAG [Fam3.1 aminoacylation ribozyme variant] | 2.02 |
| UUUACCCUGGUCAUCGAGUAA [Fam2.1 aminoacylation ribozyme variant] | 4.45 |
| AUUACCCUGCUCAUCGAGCGA [Fam2.1 aminoacylation ribozyme variant] | 1.12 |
| AUGACCCGGGUCAUCGAGUGA [Fam2.1 aminoacylation ribozyme variant] | 3.9 |

Prompt line: Give recorded self-aminoacylation with biotinyl-Ile-oxazolone for the following sequence: CUACUUCAAACAAUCCGUCUC [Fam1A.1 aminoacylation ribozyme variant]
Response line: 0.634

Prompt line: Return self-aminoacylation measured with biotinyl-Ile-oxazolone given this sequence: CCACACUUCAAGCGAUCAGUC [Fam1B.1 aminoacylation ribozyme variant]
Response line: 0.884

Prompt line: Tell me reported self-aminoacylation for GUUACCCUGGUUAUCGAGUGA [Fam2.1 aminoacylation ribozyme variant] , tested with biotinyl-Ile-oxazolone.
Response line: 5.48

Prompt line: Record AUACACCAAGGUCAUCGGGUG [Fam2.2 aminoacylation ribozyme variant] : what is its self-aminoacylation with biotinyl-Ile-oxazolone?
Response line: 4.48

Prompt line: What is its self-aminoacylation for biotinyl-Ile-oxazolone? Entry: AUUCCCCUAGGUCACCGGGUG [Fam2.2 aminoacylation ribozyme variant]
Response line: 13.9

Prompt line: Please state recorded self-aminoacylation (tested on biotinyl-Ile-oxazolone) of AUUACCCUCCUCAUCGAGUGA [Fam2.1 aminoacylation ribozyme variant]
Response line: 1.81

Prompt line: Request - read-out self-aminoacylation | tested on biotinyl-Ile-oxazolone | sequence CUACUAGAAACAAUCGGUCUG [Fam1A.1 aminoacylation ribozyme variant]
Response line: 0.673

Prompt line: Write down the reported self-aminoacylation of CCACACUUCAACCAUUCGGUC [Fam1B.1 aminoacylation ribozyme variant] , test system: biotinyl-Ile-oxazolone.
Response line: 1.51

Prompt line: Missing value: self-aminoacylation, biotinyl-Ile-oxazolone, entry AUUACCCUUGUCAUCGCGUGA [Fam2.1 aminoacylation ribozyme variant] . Fill in?
Response line: 5.26

Prompt line: API: value(readout= self-aminoacylation, system= biotinyl-Ile-oxazolone, query= AUUGACCUCGGUCAUCGGGUG [Fam2.2 aminoacylation ribozyme variant] )
Response line: 3.05

Prompt line: API: value(readout= self-aminoacylation, system= biotinyl-Ile-oxazolone, query= AUUCACAUAGGUCAUCGGGCG [Fam2.2 aminoacylation ribozyme variant] )
Response line: 2.05

Prompt line: Form field - read-out: self-aminoacylation; system: biotinyl-Ile-oxazolone; submitted item: ACACACUGCAAGCAAUCGGUC [Fam1B.1 aminoacylation ribozyme variant]
Response line: 1.43

Prompt line: Entry CUACUUCAAAUAAUCGGUCAG [Fam1A.1 aminoacylation ribozyme variant] , system biotinyl-Ile-oxazolone: what self-aminoacylation was measured?
Response line: 0.755

Prompt line: // map AUUACCCGGGCCAUCGAGUGA [Fam2.1 aminoacylation ribozyme variant] to recorded self-aminoacylation (system: biotinyl-Ile-oxazolone)
Response line: 4.18

Prompt line: What self-aminoacylation appears in the records for this sequence with biotinyl-Ile-oxazolone? ACACACGUCAAGCAAUCGGUC [Fam1B.1 aminoacylation ribozyme variant]
Response line: 1.88

Prompt line: Short answer please: self-aminoacylation, biotinyl-Ile-oxazolone, entry AUUCGCCUAGGUCAUCGGAUG [Fam2.2 aminoacylation ribozyme variant]
Response line: 0.941

Prompt line: API: value(readout=self-aminoacylation, system=biotinyl-Ile-oxazolone) for record GUACUUCAAACAAACGGUCUG [Fam1A.1 aminoacylation ribozyme variant]
Response line: 1.43

* * *

test system: biotinyl-Phe-oxazolone; assay: self-aminoacylation, catalytic enhancement (BFO) (fold over background); higher = more active; k-Seq, kA / k0A0; sequences stand for … in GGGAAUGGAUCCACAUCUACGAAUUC…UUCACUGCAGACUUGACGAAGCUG
Fewer inactive variants are shown than the library holds.
parameter: self-aminoacylation
I'd appreciate a reply containing only the number, no unit.

| primarySequence | measuredTarget | parameter | value |
| --- | --- | --- | --- |
| AUUAACCUAGGUCAUCAGGUG [Fam2.2 aminoacylation ribozyme variant] | biotinyl-Phe-oxazolone | self-aminoacylation | 1.4 |

Prompt line: Recall the recorded self-aminoacylation for AUUCACCUUGGUCAUCUGGUG [Fam2.2 aminoacylation ribozyme variant] with biotinyl-Phe-oxazolone and state it.
Response line: 17.9

Prompt line: // lookup self-aminoacylation | system=biotinyl-Phe-oxazolone | key= AAGGUUGCUUAUAGUCGCAAG [Fam3.1 aminoacylation ribozyme variant]
Response line: 2.7

Prompt line: Fill in the recorded self-aminoacylation for this sequence, with biotinyl-Phe-oxazolone as test system: CUACUUCUAACGAUCGGUCUG [Fam1A.1 aminoacylation ribozyme variant]
Response line: 0.785
